tgt: B2 bradykinin receptor (Homo sapiens)
assay info: Antagonist potency at human bradykinin B2 receptor assessed as effect on inositol monophosphate accumulation in CHOdhfr- cells
Assay type: functional, cell-based
test context: read-out: pA2 (converted)
observable: Kb (nM)
One number for each entry, in nM.

The examples below pair each entry with its known result.
[[record]]
given_smiles = "Cc1cc(C)c2cccc(OCc3c(Cl)ccc(S(=O)(=O)NC4(C(=O)N5CCN(C(=O)[C@H](CCCN)[N+](C)(C)C)CC5)CCCC4)c3Cl)c2n1"
unit_info = "nM"
recorded_result = 0.501

[[record]]
given_smiles = "Cc1cc(C)c2cccc(OCc3c(Cl)ccc(S(=O)(=O)NC4(C(=O)N5CCN(C(=O)C[C@@H](N)CCC[N+](C)(C)C)CC5)CCCC4)c3Cl)c2n1"
unit_info = "nM"
recorded_result = 1.58

[[record]]
given_smiles = "Cc1cc(C)c2cccc(OCc3c(Cl)ccc(S(=O)(=O)NC4(C(=O)N5CCN(C(=O)[C@H](CCCCN)[N+](C)(C)C)CC5)CCCC4)c3Cl)c2n1"
unit_info = "nM"
recorded_result = 1.58


Give measured Kb for every item shown.
1. Cc1cc(C)c2cccc(OCc3c(Cl)ccc(S(=O)(=O)NC4(C(=O)N5CCN(C(=O)CCCC[N+](C)(C)C)CC5)CCCC4)c3Cl)c2n1
2. Cc1cc(C)c2cccc(OCc3c(Cl)ccc(S(=O)(=O)NC4(C(=O)N5CCN(C(=O)[C@@H](N)CCCCN(C)C)CC5)CCCC4)c3Cl)c2n1
3. Cc1cc(C)c2cccc(OCc3c(Cl)ccc(S(=O)(=O)NC4(C(=O)N5CCN(C(=O)C[C@@H](N)CCCNC(=N)N)CC5)CCCC4)c3Cl)c2n1
4. Cc1cc(C)c2cccc(OCc3c(Cl)ccc(S(=O)(=O)NC4(C(=O)N5CCN(C(=O)[C@H](CCCCN(C)C)N(C)C)CC5)CCCC4)c3Cl)c2n1
5. Cc1cc(C)c2cccc(OCc3c(Cl)ccc(S(=O)(=O)NC4(C(=O)N5CCN(C(=O)C[C@@H](N)CCCN(C)C)CC5)CCCC4)c3Cl)c2n1

[1.58, 0.794, 0.794, 3.16, 1.58]

---

tgt: B2 bradykinin receptor (Homo sapiens, UniProt P30411)
Sequence (P30411 whole entry): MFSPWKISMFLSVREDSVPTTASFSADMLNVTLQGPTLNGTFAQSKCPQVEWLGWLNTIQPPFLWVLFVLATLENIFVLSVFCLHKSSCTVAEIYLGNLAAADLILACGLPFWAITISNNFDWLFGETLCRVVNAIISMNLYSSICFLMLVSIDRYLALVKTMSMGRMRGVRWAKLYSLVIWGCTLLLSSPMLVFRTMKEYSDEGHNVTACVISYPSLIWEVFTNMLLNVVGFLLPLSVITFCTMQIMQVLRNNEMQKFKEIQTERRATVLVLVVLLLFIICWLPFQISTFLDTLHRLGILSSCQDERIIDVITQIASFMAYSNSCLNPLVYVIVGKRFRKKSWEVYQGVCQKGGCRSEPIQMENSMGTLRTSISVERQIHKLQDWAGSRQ
assay info: Displacement of [3H]BK from human bradykinin B2 receptor transfected in CHO cells
So I've got a bunch of compounds here, and I need their Ki values.
Numbers only, in pM.

[[record]]
given_smiles = "Cc1cc(C)c2cccc(OCc3c(Cl)ccc(S(=O)(=O)NC4(C(=O)N5CCN(C(=O)[C@@H](N)CCCCN)CC5)CCCC4)c3Cl)c2n1"
observable = "Ki"
recorded_result = 316

[[record]]
given_smiles = "CC(=O)N1CCC(NS(=O)(=O)c2ccc(Cl)c(COc3cccc4c(C)cc(C)nc34)c2Cl)(C(=O)N2CCN(C(=O)[C@@H](N)CCC[N+](C)(C)C)CC2)CC1"
observable = "Ki"
recorded_result = 158

[[record]]
given_smiles = "Cc1cc(C)c2cccc(OCc3c(Cl)ccc(S(=O)(=O)NC4(C(=O)N5CCN(C(=O)[C@H](CCCN)[N+](C)(C)C)CC5)CCCC4)c3Cl)c2n1"
observable = "Ki"
recorded_result = 251

[[record]]
given_smiles = "Cc1cc(C)c2cccc(OCc3c(Cl)ccc(S(=O)(=O)NC4(C(=O)N5CCN(C(=O)CCCCCNC(=N)N)CC5)CCCC4)c3Cl)c2n1"
observable = "Ki"
recorded_result = 1260

[[record]]
given_smiles = "Cc1cc(C)c2cccc(OCc3c(Cl)ccc(S(=O)(=O)N4CCC[C@@H]4C(=O)NCCCNC(=O)c4ccc(C(=N)N)cc4)c3Cl)c2n1"
observable = "Ki"
recorded_result = 398


Continue with the next compound.
What value of Ki has been recorded for this entry: Cc1cc(C)c2cccc(OCc3c(Cl)ccc(S(=O)(=O)NC4(C(=O)N5CCN(C(=O)[C@H](CCC[N+](C)(C)C)[N+](C)(C)C)CC5)CCCC4)c3Cl)c2n1
200
